Test: NCI Yeast Anticancer Drug Screen. Data for the rad50 strain (AID 155);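 also: 0% = growth of vehicle-only cultures of the same strain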
Settings: S. cerevisiae rad50 strain growth inhibition; at 5.0 µM (retest, dose inferred, filed as 0.5); stronger effect = higher value
Compounds without any hit were thinned out: in the full panel of roughly 79,000, 15% have a hit.
Listed next: entries and their corresponding growth inhibition.
Field: numeric (%). Do not append units.

Example compounds with recorded growth inhibition:
C1=CC2CCC[N-]C2N1.C1=CC2CCC[N-]C2N1.[I][Pt+2][I] (configuration not stated) ... 4
CC(=O)OC1CC[C@@]2(C)C(=CC[C@@H]3[C@@H]2CC[C@]2(C)C(OC(C)=O)[C@H](n4ccnc4)C[C@@H]32)C1 (some centres not stated) ... 22
CN(Cc1ccccc1)CC(O)c1cccc(I)c1 (configuration not stated) ... -3
O=C(CCCc1ccccc1)[O][Hg][c]1ccccc1 ... 99
COc1ccc([As]=[As]c2ccc(OC)cc2)cc1 (configuration not stated) ... -23
O=C1C(=O)C(Br)(Br)C(Br)=C1Br ... -2
ClCCN(CCCl)CCN1c2ccc3ccccc3c2Sc2ccc3ccccc3c21 ... -3
O=[N+]([O-])/C=C\C(Cl)(Cl)Cl ... 74
O=C1C(C(Nc2ccccc2)c2ccccc2)=C([O-])c2ccccc21.O=C1C(C(Nc2ccccc2)c2ccccc2)=C([O-])c2ccccc21.[Ni+2] (configuration not stated) ... 57
CC(=O)[C-](I)C(C)=O.CC(=O)[C-](I)C(C)=O.CC(=O)[C-](I)C(C)=O.[Ru+3] ... -6

Given the compound CCN(CC)C(=S)[S-].CCN(CC)C(=S)[S-].O=C(O)CC([S-])C(=O)O.[Fe+3] (configuration not stated) , what is its reported growth inhibition?
4

Given the compound CC(=O)O[C@H]1CCC2[C@@H]3CCC4Nc5oncc5C[C@]4(C)C3CC[C@@]21C (some centres not stated) , what is its reported growth inhibition?
-6

Given the compound O=C1C=C(N2CC2)C(=O)C(N2CC2)=C1N1CC1 , what is its reported growth inhibition?
97

Given the compound C1CCC(NCC2CCCO2)CC1 (configuration not stated) , what is its reported growth inhibition?
-12

Given the compound COc1ccc(/C=C(\C)[N+](=O)[O-])cc1OC , what is its reported growth inhibition?
53

Given the compound COc1ccc(NN=O)nc1 , what is its reported growth inhibition?
21

Given the compound BrP(NC1CCCCCC1)(c1ccccc1)(c1ccccc1)c1ccccc1 , what is its reported growth inhibition?
43

Given the compound O=[N+]([O-])c1ccc([N+](=O)[O-])c2nsnc12 , what is its reported growth inhibition?
98

Given the compound O=S(=O)(F)c1ccc(Cl)cc1 , what is its reported growth inhibition?
22
